Source of measurements: patent US20210395210A1

# System: HEK 293 kidney cells
# PROCEDURE_TEXT: Kidney cell viability assay (Alamar Blue)
# EXPERIMENTAL_PARAMETERS: read-out: Human Cell Viability CC50, Kidney (HEK 293); HEK 293 kidney cells, Alamar Blue, 48 h
Record form. Attribute: CC50. Fill in for each entry.
Write the answer as a number in µM, unit excluded.

Identify measured CC50 corresponding to O=C(Nc1ccccc1)c1cc(Br)cc(Br)c1O [Compound 13, 3,5-Dibromo-2-hydroxy-N-phenylbenzamide]
34

Please list CC50 recorded for the compound Cc1cc(C(C#N)c2ccc(Cl)cc2)c(Cl)cc1NC(=O)c1cc(I)cc(I)c1O (stereo not shown) [Closantel, closantel, reference compound]
75

// fetch CC50 given entry O=C(Nc1cccc(Cl)c1)c1cc(Br)cc(Br)c1O
18
